// data source = ChEMBL document CHEMBL1129042

target or system: UniProt:P19793
Sequence (P19793 whole entry): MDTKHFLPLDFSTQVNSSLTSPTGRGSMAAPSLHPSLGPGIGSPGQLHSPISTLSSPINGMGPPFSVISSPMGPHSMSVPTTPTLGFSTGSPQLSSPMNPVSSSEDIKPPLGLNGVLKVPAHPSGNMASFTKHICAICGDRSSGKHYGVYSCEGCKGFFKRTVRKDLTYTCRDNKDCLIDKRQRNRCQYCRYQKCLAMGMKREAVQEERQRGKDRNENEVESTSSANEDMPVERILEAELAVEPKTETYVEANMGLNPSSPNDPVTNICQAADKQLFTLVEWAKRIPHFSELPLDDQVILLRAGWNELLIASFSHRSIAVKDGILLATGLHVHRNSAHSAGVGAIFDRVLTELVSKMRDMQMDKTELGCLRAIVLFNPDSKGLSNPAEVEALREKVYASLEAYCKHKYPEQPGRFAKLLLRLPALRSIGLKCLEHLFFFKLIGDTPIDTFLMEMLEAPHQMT

compound | Ki (nM)
CC(/C=C/C=C(\C)c1cc(C(C)(C)C)cc(C(C)(C)C)c1)=C\C(=O)O (stereo in doubt; form 1) | 4.6

* * *

target or system: Retinoic acid receptor gamma (Homo sapiens)
test protocol: Percent transcriptional activation relative to ATRA in CV-1 cells expressing Retinoic acid receptor RAR gamma
Format: functional, cell-based

molecule | target or system | Efficacy / %
CC(/C=C/C=C(\C)c1cc(C(C)(C)C)cc(C(C)(C)C)c1)=C\C(=O)O (stereo in doubt; form 2) | Retinoic acid receptor gamma (Homo sapiens) | 48
CC1=C(/C=C/C(C)=C\C=C\C(C)=C\C(=O)O)C(C)(C)CCC1 | Retinoic acid receptor gamma (Homo sapiens) | 93
CC1=C(/C=C/C(C)=C/C=C/C(C)=C/C(=O)O)C(C)(C)CCC1 | Retinoic acid receptor gamma (Homo sapiens) | 100
CC(/C=C/C=C(\C)c1cc(C(C)(C)C)cc(C(C)(C)C)c1)=C\C(=O)O (stereo in doubt; form 1) | Retinoic acid receptor gamma (Homo sapiens) | 58

* * *

target or system: Retinoic acid receptor alpha (Homo sapiens)
Sequence (P10276 whole entry): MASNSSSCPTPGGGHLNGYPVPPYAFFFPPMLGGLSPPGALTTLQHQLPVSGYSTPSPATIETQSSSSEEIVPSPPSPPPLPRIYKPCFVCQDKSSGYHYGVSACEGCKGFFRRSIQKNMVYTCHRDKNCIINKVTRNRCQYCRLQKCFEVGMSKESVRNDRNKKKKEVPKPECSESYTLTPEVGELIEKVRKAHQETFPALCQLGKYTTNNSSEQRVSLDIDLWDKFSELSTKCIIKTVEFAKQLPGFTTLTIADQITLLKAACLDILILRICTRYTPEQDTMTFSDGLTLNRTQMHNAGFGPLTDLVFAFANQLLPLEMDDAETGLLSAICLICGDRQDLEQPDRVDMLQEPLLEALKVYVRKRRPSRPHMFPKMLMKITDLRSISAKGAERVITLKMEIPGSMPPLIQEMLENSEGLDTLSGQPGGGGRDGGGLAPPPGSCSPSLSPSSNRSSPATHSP
reported property: Ki (µM)

molecule | numeric result
CC(/C=C/C=C(\C)c1cc(C(C)(C)C)cc(C(C)(C)C)c1)=C\C(=O)O (stereo in doubt; form 1) | 0.0635

* * *

target or system: Retinoic acid receptor RXR-gamma (Homo sapiens, UniProt P48443)
Sequence (P48443 whole entry): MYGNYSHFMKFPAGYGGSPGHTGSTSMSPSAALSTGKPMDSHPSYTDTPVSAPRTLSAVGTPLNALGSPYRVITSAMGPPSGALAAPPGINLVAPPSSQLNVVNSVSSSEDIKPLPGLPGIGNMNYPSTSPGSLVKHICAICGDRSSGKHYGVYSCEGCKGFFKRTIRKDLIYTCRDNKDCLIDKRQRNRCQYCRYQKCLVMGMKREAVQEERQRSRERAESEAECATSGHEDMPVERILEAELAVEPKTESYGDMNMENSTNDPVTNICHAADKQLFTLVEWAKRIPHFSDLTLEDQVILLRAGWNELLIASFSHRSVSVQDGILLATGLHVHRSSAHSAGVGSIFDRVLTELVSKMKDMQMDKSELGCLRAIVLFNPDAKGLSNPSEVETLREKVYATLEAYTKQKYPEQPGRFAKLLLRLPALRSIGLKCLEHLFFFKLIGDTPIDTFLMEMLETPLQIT
test protocol: Transcriptional activation in CV-1 cells expressing Retinoid X receptor RXR gamma
Assay type: functional, cell-based

compound | EC50 (nM)
CC(/C=C/C=C(\C)c1cc(C(C)(C)C)cc(C(C)(C)C)c1)=C\C(=O)O (stereo in doubt; form 1) | 77

* * *

target or system: Retinoic acid receptor RXR-beta (Homo sapiens)
Sequence (P28702 whole entry): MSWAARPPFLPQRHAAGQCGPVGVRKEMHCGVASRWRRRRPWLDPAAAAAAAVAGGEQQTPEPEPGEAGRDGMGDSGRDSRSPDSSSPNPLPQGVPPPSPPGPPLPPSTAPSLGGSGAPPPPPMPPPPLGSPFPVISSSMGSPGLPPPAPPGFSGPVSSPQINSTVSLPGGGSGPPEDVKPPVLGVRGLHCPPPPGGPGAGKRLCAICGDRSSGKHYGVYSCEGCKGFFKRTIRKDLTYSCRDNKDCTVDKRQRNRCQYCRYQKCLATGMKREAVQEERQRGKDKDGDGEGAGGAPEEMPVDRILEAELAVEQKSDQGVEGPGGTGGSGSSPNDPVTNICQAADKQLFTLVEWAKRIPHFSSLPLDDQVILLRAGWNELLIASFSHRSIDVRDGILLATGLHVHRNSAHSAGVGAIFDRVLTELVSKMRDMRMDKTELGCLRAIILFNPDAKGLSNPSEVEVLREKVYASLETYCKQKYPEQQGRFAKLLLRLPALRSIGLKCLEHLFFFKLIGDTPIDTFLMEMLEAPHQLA

compound | unit of measurement | Ki
CC(/C=C/C=C(\C)c1cc(C(C)(C)C)cc(C(C)(C)C)c1)=C\C(=O)O (stereo in doubt; form 2) | nM | 560
